Test: Oral PK in mice (Table 1)
Assay type: in vivo
Details: mouse, plasma; C57BL/6 mice, 10 mg/kg oral gavage
property-label: Cmax (ng/mL)
// return numeric value only (unit: ng/mL, not printed)

Answer with the recorded Cmax for the compound listed here: CNC(=O)c1ccnc(NC(=O)N2CCC(Oc3ccccc3Cl)CC2)c1 [Compound 1]
4320

###

Assay: 14-day repeat oral dosing toxicity/toxicokinetics in dogs
Format: in vivo
Settings: both sexes, beagle, dog, in vivo; dogs, oral; read-out: maximum tolerated dose (MTD)
property-label: MTD at 14 days (mg/kg)
State just the number; it will be interpreted in mg/kg.

For the molecule `CNC(=O)c1ccnc(NC(=O)N2CCC(Oc3ccccc3Cl)CC2)c1` , give its measured MTD at 14 days value.
20
